Reported inhibition values for the following molecules.
# measuredOn: SRSF protein kinase 3 (Homo sapiens) (UniProt Q9UPE1)
# Sequence (Q9UPE1 whole entry): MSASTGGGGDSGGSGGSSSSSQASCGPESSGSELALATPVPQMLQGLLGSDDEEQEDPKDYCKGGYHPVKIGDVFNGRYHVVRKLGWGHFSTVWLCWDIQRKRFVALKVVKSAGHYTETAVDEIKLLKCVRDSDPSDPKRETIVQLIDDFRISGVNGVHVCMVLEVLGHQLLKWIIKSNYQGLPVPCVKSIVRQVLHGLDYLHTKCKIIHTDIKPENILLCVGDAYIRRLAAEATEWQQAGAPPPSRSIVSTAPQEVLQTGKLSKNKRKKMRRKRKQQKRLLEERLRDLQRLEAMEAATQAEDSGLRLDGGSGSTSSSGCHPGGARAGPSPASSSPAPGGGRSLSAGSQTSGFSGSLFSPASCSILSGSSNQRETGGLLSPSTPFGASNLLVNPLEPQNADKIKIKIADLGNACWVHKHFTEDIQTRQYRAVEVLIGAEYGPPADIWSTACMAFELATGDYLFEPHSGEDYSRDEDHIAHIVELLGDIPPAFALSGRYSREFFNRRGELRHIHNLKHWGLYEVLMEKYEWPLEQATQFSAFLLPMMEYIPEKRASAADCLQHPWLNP
# measurementParameters: at 1 µM
recordedEndpoint: inhibition (%)

- COc1cc2ncnc(Nc3ccc4c(cnn4Cc4ccccc4)c3)c2cc1OC: -0.51
- COc1cc2ncn(-c3cc(OCc4ccccc4S(C)(=O)=O)c(C#N)s3)c2cc1OC: 1.49
- COc1cccc(-n2ncc3c(N/N=C/c4ccc(S(C)(=O)=O)cc4)ncnc32)c1: 1

====

# measuredOn: Phosphatidylinositol 4-kinase beta (Homo sapiens) (UniProt Q9UBF8)
# Sequence (Q9UBF8 2-816 limits assumed): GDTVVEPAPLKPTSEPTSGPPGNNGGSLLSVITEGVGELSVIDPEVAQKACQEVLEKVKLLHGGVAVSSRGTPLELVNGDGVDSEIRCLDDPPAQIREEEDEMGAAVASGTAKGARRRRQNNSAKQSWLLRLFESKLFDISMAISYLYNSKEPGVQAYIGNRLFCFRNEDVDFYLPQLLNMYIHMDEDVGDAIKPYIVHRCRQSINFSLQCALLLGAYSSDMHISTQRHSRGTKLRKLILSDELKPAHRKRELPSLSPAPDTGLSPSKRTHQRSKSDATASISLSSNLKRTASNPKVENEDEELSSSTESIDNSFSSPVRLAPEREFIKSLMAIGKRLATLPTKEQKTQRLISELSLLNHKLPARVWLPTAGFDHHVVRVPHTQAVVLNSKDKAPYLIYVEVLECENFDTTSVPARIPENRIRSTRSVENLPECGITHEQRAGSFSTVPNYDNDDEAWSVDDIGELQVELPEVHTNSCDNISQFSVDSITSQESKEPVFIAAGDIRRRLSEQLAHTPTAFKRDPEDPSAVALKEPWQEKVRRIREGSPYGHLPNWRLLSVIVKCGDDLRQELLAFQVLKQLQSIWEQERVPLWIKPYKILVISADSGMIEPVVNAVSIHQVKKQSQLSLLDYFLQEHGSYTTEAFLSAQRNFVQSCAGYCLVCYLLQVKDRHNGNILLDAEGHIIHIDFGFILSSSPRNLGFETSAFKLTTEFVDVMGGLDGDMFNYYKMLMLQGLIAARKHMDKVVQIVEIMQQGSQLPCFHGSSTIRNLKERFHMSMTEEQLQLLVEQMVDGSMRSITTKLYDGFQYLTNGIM
# measurementParameters: at 0.1 µM
recordedEndpoint: inhibition (%)

* COc1ccc(-c2nn3ncccc3c2-c2ccnc(Nc3cccc(C(F)(F)F)c3)n2)cc1 | 4.99
* c1ccc(Cc2nc3ccc(Nc4ncnc5ccccc45)cc3[nH]2)cc1 | -0.98
* Cc1cc(O)cc(C)c1/C=C/c1cncc(C(=O)N(C)C)c1 | -2.1
* CS(=O)(=O)CCNCc1nc(-c2ccc3ncnc(Nc4ccc(OCc5cccc(C(F)(F)F)c5)cc4)c3c2)cs1 | -0.59
* COc1cc2ncn(-c3cc(OCc4ccccc4S(C)(=O)=O)c(C#N)s3)c2cc1OC | -5.13

Values from ChEMBL document CHEMBL1961873
